Hello, the source for this data is PubChem BioAssay (NCI), in case you need it.

tested on: TK-10 renal; test: NCI tumour cell line growth inhibition, 48 h

compound	TGI
Cc1cc(N(CCC#N)CCC#N)ccc1/C=C(\NC(=O)/C=C/c1ccccc1)C(=O)NN	> 76.8 µM
COc1ccc(C2c3cc4c(cc3OC(N3CCOCC3)C2C)OCO4)c(OC)c1OC (stereo not given)	70.5 µM
COc1cc2c(cc1OC)C(C(=O)c1cccc(OC)c1OC)C(=O)N(C)CC2 (stereo not given)	> 100 µM
N#Cc1c(-c2ccccc2)cc(-c2ccc(Cl)cc2)[nH]c1=S	> 100 µM
CCC(C(=O)C(=O)OC)P1(=O)OC(C)(C)CN1C(C)(C)C (stereo not given)	> 100 µM
C=C(C)C1C/C=C(/C)CCCC2(CCC3=C(CC(C(=C)C)C/C=C(/C)CCC3)O2)C(=O)C1 (stereo not given)	> 100 µM
CC(=O)OCc1c(O)c2c(c(O)c1COC(C)=O)C(=O)C=CC2=O	30 µM
COc1ccc(OC)c(Cn2cc3c(c2-c2ccccc2)CCc2cnoc2-3)c1	> 100 µM
COC(=O)C1(C)Cc2cc(OC(C)=O)c(OC(C)=O)cc2N1 (stereo not given)	44.1 µM
COC1CC(OC2CCC3(C)C(=CCC4C3C(OC(C)=O)C(OC(=O)CC(C)C)C3(C)C(C(C)=O)CCC43O)C2)OC(C)C1OC1CC(OC)C(OC2CC(OC)C(OC3OC(C)C(OC4OC(CO)C(O)C(O)C4O)C(OC)C3O)C(C)O2)C(C)O1 (stereo not given)	> 75 µM
